The origin of these recorded values is patent US20230115176A1.

- test.system: Human C5 (Homo sapiens, UniProt P01031)
- Construct: purchased Complement Technology
- protocol.notes: Red blood cell (RBC) hemolysis assay, luminescent (Example 28, Table 32)
- Assay type: cell-based
- experimental.conditions: sheep EA cells, 1.5% C5-depleted human serum, 0.5 nM human C5, 1 hour at 37° C., luminescence (Table 32)
observed.property: IC50 (nM)
One number for each entry, in nM.

Consider the following items and state reported IC50 for each.
1. CCCCCOc1cc(N2CC(C)CN(Cc3ccc(CNC(=O)OC)cc3OC)C2=O)ccc1OC (stereo not shown) [SC0200]
2. CCCCCOc1cc(N2CC[C@H](C)N(Cc3ccnc4c3c(Cl)cn4CC(=O)N3CC(O)C3)C2=O)ccc1OC [SC0120]
3. CCCCCOc1cc(N2CC[C@H](C)N(Cc3ccnc4c3c(Cl)cn4CC(=O)N3CCO[C@H](COC)C3)C2=O)ccc1OC [SC0127]
4. CCCCCOc1cc(N2CC(C)(C)CN(Cc3ccc(CC(=O)N(C)C)cc3OC)C2=O)ccc1OC [SC0220]
5. CCN1CC[C@H](N(C)C(=O)Cc2ccc(CN3C(=O)N(c4ccc(OC)c(OCCCC5CC5)c4)CC[C@@H]3C)c(OC)c2)C1 [SC0149]
6. CCCCCOc1cc(N2CC[C@H](C)N(Cc3ccnc4c3c(Cl)cn4CC(=O)N[C@H]3CCN(C)C3)C2=O)ccc1OC [SC0147]
7. CCCCCOc1cc(N2C[C@@H](C)CN(Cc3ccc(CC(=O)N4CCOCC4)cc3OC)C2=O)ccc1OC [SC0201]

1. 9.9
2. 1.5
3. 1.7
4. 42.1
5. 2.2
6. 2.2
7. 10

---

- test.system: purified human C5 (Homo sapiens)
- Sequence (P01031 19-1676): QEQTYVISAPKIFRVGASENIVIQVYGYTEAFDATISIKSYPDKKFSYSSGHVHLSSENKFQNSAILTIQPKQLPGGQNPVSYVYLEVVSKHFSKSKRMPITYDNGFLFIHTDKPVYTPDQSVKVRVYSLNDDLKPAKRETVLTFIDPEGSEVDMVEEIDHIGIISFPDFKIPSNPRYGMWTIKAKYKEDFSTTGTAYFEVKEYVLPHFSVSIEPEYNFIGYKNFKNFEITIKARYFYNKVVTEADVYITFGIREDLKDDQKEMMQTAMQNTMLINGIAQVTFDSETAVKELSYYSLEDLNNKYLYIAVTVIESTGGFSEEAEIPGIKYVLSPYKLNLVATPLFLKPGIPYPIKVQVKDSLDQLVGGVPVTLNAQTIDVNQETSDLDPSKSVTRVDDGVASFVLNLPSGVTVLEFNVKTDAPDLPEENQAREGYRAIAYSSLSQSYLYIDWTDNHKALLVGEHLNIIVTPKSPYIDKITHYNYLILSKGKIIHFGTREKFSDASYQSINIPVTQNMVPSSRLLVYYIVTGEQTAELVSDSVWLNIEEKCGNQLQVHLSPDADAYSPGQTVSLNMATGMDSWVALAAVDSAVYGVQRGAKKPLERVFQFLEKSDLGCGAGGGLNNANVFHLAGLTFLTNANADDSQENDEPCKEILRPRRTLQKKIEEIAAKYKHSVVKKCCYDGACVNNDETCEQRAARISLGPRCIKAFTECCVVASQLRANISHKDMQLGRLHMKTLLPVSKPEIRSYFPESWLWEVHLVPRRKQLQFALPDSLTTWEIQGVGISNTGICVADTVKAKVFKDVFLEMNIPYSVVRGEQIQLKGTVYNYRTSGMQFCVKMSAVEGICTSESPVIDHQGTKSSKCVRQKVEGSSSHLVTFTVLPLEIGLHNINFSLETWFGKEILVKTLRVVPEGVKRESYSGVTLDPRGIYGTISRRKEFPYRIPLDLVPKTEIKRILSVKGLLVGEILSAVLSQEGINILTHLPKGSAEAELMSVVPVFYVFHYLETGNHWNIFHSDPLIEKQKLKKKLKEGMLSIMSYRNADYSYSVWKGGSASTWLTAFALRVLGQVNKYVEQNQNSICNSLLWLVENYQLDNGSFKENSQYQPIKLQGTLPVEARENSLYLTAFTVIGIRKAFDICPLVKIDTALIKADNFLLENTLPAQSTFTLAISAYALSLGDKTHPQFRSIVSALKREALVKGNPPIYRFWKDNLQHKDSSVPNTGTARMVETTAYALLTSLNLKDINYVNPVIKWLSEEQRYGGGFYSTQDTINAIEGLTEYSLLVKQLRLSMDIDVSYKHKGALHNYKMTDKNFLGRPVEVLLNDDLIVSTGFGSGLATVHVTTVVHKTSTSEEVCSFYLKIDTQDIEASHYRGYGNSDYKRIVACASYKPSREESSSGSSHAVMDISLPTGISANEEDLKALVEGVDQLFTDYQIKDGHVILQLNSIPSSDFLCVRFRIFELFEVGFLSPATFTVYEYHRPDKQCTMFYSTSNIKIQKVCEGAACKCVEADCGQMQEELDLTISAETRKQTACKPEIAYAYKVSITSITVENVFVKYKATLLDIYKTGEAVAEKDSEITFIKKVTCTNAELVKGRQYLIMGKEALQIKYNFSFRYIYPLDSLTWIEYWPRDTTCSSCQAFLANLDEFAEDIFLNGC
- protocol.notes: Red blood cell (RBC) hemolysis assay, optical, absorbance 412 nm (Example 10, Table 19)
- Type: cell-based
- experimental.conditions: antibody-sensitized sheep erythrocytes, […] human C5 depleted sera, 0.5 nM purified human C5, absorbance 412 nm; read-out: RBC Hemolysis IC50
Mark 1 only when IC50 stays strictly below 100 nM. Values equal to the cut-off are 0.

Solved entries (count: 5):
Dear colleague, could you confirm whether IC50 of COc1ccc(NC(=O)NCc2cccc3c2ccn3CC2CCCN2C)cc1OCCCC(C)C (centres unmarked) [Compound C5INH-0519] falls below 100 nM? Thanks.
1

Strictly below 100 nM: is that where IC50 of COc1ccc(NC(=O)N2CCCC2c2ccccc2OC)cc1OCCCC(C)C (centres unmarked) [Compound C5INH-0371] sits?
1

Take the molecule COc1ccc(CNC(=O)Nc2ccc(OC)c(OCCCC(C)C)c2)c(OC)c1 [Compound C5INH-0348] and say whether its IC50 is less than 100 nM.
1

Criterion: IC50 strictly below 100 nM. Is it met by COc1ccc(NC(=O)NCc2cccc3c2ncn3CCN(C)C)cc1OCCCC(C)C [Compound C5INH-0536] ?
0

Item COc1ccc(NC(=O)NC(CO)c2cccc3[nH]ccc23)cc1OCCCC(C)C (centres unmarked) [Compound C5INH-0356] : IC50 beneath 100 nM, strictly?
0

Continuing:
hey, is IC50 for COc1ccc(NC(=O)NCc2ccc3c(N)n[nH]c3c2)cc1OCCCC(C)C [Compound C5INH-0458] lower than 100 nM or not?
0

Does COc1ccc(NC(=O)NCc2ccnc3c2ccn3CCN2CCOCC2)cc1OCCCC(C)C [Compound C5INH-0370] have IC50 strictly under 100 nM?
0

Take the molecule COc1ccc(NC(=O)NC(CO)c2cc(F)ccc2O)cc1OCCCC(C)C (centres unmarked) [Compound C5INH-0315] and say whether its IC50 is less than 100 nM.
1
